# TESTED_ON: P2X purinoceptor 7 (Homo sapiens)
# Sequence (Q99572 whole entry): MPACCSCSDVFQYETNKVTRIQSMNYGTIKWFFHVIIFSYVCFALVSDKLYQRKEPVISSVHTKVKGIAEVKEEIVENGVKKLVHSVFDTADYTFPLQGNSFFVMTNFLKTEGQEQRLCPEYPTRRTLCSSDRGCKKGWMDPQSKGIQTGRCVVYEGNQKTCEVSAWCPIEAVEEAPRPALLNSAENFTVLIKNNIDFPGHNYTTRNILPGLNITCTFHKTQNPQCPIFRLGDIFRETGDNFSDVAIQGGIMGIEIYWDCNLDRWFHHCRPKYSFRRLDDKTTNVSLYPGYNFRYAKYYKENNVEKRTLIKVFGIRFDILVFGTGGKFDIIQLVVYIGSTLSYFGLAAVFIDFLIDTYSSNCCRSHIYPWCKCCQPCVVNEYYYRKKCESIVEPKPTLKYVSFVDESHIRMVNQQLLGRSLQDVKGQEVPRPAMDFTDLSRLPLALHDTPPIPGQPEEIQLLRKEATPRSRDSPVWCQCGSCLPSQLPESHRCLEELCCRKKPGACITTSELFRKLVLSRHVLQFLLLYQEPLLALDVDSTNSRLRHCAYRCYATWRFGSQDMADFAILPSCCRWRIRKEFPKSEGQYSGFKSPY
# PROCEDURE_DETAILS: Antagonist activity at P2X7 receptor in LPS-stimulated human whole blood assessed as inhibition of ATP-induced IL1-beta production treated 30 mins before LPS challenge measured after 3 hrs by ELISA
TEST_READOUT: log10 of IC50 (log10 of the value in nM)
Values reflect log10 of reported IC50 (nM).

In the examples that follow, each entry is paired with its recorded log10 of IC50.
CCN1C(=O)c2nc(-c3ccc(-c4ccccc4)cc3)n(Cc3cc(F)cc(F)c3)c2N2CC(C)(C)N=C12	1.96
CCN1C(=O)c2nc(-c3ccc(-c4cccc(OC(F)(F)F)c4)nc3)n(Cc3ccc(F)c(F)c3)c2N2CC(C)(C)N=C12	2.04
CCN1C(=O)c2nc(-c3ccc(-c4cccc(C(F)(F)F)c4)nc3)n(Cc3ccc(F)c(F)c3)c2N2CC(C)(C)N=C12	2.02
CCN1C(=O)c2nc(-c3ccc(-c4ccccc4)cc3)n(Cc3cc(F)ccc3F)c2N2C[C@@H](C(C)C)N=C12	3.02
CCN1C(=O)c2nc(-c3ccc(-c4ccc(F)cc4)nc3)n(Cc3ccc(F)c(F)c3)c2N2CC(C)(C)N=C12	1.65
CCN1C(=O)c2nc(-c3ccc(-c4cccc(F)c4)nc3)n(Cc3ccc(F)c(F)c3)c2N2CC(C)(C)N=C12	1.45
CCN1C(=O)c2nc(-c3ccc(-c4cccc(C)c4)nc3)n(Cc3ccc(F)c(F)c3)c2N2CC(C)(C)N=C12	1.40

// next entry
Entry `CCN1C(=O)c2nc(-c3ccc(-c4ccc(C)cc4)nc3)n(Cc3ccc(F)c(F)c3)c2N2CC(C)(C)N=C12` : reported log10 of IC50 = ? 1.59
